assay: Differential scanning calorimetry (thermal stability, Tm); format: physicochemical; conditions: DSC, Table 9
OBSERVED_PROPERTY: Tm (°C)

1. 387B01 (protein) VSDVPRDLEVVAATPTSLLISWSARLKVARYYRITYGETGGNSPVQEFTVPKNVYTATISGLKPGVDYTITVYAVTSLRDYGPISINYRTHHHHHH; 63
2. 386A03 (protein) VSDVPRDLEVVAATPTSLLISWSARLKVARYYRITYGETGGNSPVQEFTVPKNVYTATISGLKPGVDYTITVYAVTNLRDYGPISINYRTHHHHHH; 62
3. 386F10 (protein) VSDVPRDLEVVAATPTSLLISWSARLKVARYYRITYGETGGNSPVQEFTVPKNVYTATISGLKPGVDYTITVYAVTLLRDYGPISINYRTHHHHHH; 58
4. 385A08 (protein) VSDVPRDLEVVAATPTSLLISWSARLKVARYYRITYGETGGNSPVQEFTVPKNVYTATISGLKPGVDYTITVYAVTRFRDYQPISINYRTHHHHHH; 59
